Origin of measurements: patent US20080280890A1

Structures can show the parent of a compound that is named as a salt.
experimentalReadout: melting point

Here is how some molecules turned out for melting point.
Item CC(C)c1nsnc1OCC1=CC(C)(C)N(O)C1(C)C (as salt: hydrochloride) [Compound 51] has what recorded melting point?
155.7 °C

Item CC1(C)CC(Cl)CC(C)(C)N1O.Cl [Compound 21] has what recorded melting point?
201.8 °C (dec.)

Item CC1(C)CC(O)C(Br)C(C)(C)N1O (centres unmarked) [Compound 9] has what recorded melting point?
138.5 °C (dec.)

Next:
Item COc1ccc2nc(NC3CC(C)(C)N(O)C(C)(C)C3)sc2c1.Cl has what recorded melting point?
220 °C (dec.)

Item CC(=O)NC1CC(C)(C)N(O)C(C)(C)C1.Cl [Compound 2] has what recorded melting point?
180.5 °C (dec.)

----------
// Mean OD (×10^−3), cancer cell viability lookup, one value per entry
# System: Human neuroblastoma SKN-SH cells, resistant to doxorubicin
# assayDetails: Chemoresistance: cancer cell viability (MTT) in presence or absence of doxorubicin
# Assay type: cell-based
# condition: compound 50 ug/mL; Dox. 10^−6 M present (+); MTT

Item CC(=O)NC1CC(C)(C)N(O)C(C)(C)C1.Cl [Compound 2] has what recorded Mean OD (×10^−3), cancer cell viability?
249.25 ×10^−3

Item CC1(C)CC(NC(=O)C2CC2)C(C)(C)N1O.Cl (centres unmarked) [Compound 38] has what recorded Mean OD (×10^−3), cancer cell viability?
378.50 ×10^−3

Item CC1(C)CC(OCc2ccccc2)CC(C)(C)N1O.Cl [Compound 43] has what recorded Mean OD (×10^−3), cancer cell viability?
324.67 ×10^−3

Item CC1(C)CC(CO)CC(C)(C)N1O.Cl [Compound 34] has what recorded Mean OD (×10^−3), cancer cell viability?
302.75 ×10^−3

Item CC1(C)CC(O)(c2ccccc2)CC(C)(C)N1O.Cl [Compound 42] has what recorded Mean OD (×10^−3), cancer cell viability?
311.00 ×10^−3

Item CC1C(O)C(C)C(C)(C)N(O)C1(C)C.Cl (centres unmarked) [Compound 6] has what recorded Mean OD (×10^−3), cancer cell viability?
185.25 ×10^−3

Next:
Item CC1(C)CC(NC(=O)C2CC2)CC(C)(C)N1O.Cl [Compound 31] has what recorded Mean OD (×10^−3), cancer cell viability?
322.25 ×10^−3

Item CC1(C)CC(=O)C(C)(C)N1O.Cl [Compound 37] has what recorded Mean OD (×10^−3), cancer cell viability?
366.25 ×10^−3

----------
# System: Human neuroblastoma SKN-SH cells, resistant to doxorubicin
# assayDetails: Chemoresistance: cancer cell viability (MTT) in presence or absence of doxorubicin
# Type: cell-based
# condition: compound 50 ug/mL; Dox. 10^−6 M present (+); MTT
experimentalReadout: Mean OD (×10^−3), cancer cell viability

Item CC1(C)CC(NS(C)(=O)=O)CC(C)(C)N1O has what recorded Mean OD (×10^−3), cancer cell viability?
250.00 ×10^−3

Item CC1(C)C=CCC(C)(C)N1O.Cl has what recorded Mean OD (×10^−3), cancer cell viability?
352.75 ×10^−3

Item CC1(C)CC(Oc2nsnc2N2CCOCC2)CC(C)(C)N1O.Cl has what recorded Mean OD (×10^−3), cancer cell viability?
88.00 ×10^−3

Item CC(C)(C)c1cc(NC(=O)C2CC(C)(C)N(O)C(C)(C)C2)cc(C(C)(C)C)c1O.Cl has what recorded Mean OD (×10^−3), cancer cell viability?
105.75 ×10^−3

Item CC1(C)CC(O)(c2ccc(F)cc2)CC(C)(C)N1O.Cl has what recorded Mean OD (×10^−3), cancer cell viability?
426.25 ×10^−3

Next:
Item CC1(C)CC(N2CCOCC2)CC(C)(C)N1O.Cl has what recorded Mean OD (×10^−3), cancer cell viability?
289.50 ×10^−3

Item COc1ccc(C2=C(c3cc(OC)c(OC)c(OC)c3)C(C)(C)N(O)C2(C)C)cc1C=O has what recorded Mean OD (×10^−3), cancer cell viability?
32.75 ×10^−3

Item CC1(C)CC(=CC(=O)N2CCN(c3ccccc3)CC2)CC(C)(C)N1O has what recorded Mean OD (×10^−3), cancer cell viability?
308.75 ×10^−3

----------
# System: Human neuroblastoma SKN-SH cells, resistant to doxorubicin
# assayDetails: Chemoresistance: cancer cell viability (MTT) in presence or absence of doxorubicin
# Assay type: cell-based
# condition: compound 50 ug/mL; Dox. absent (−); MTT
experimentalReadout: Mean OD (×10^−3), cancer cell viability

Here is how some compounds turned out for Mean OD (×10^−3), cancer cell viability.
Item CC1(C)CC(NC(=O)CCCCC2CCSS2)CC(C)(C)N1O (stereo not drawn) has what recorded Mean OD (×10^−3), cancer cell viability?
1330.25 ×10^−3

Item Cc1nsnc1OCC1=CC(C)(C)N(O)C1(C)C has what recorded Mean OD (×10^−3), cancer cell viability?
1168.33 ×10^−3

Item COC1CC(C)(C)N(O)C(C)(C)C1.Cl has what recorded Mean OD (×10^−3), cancer cell viability?
524.75 ×10^−3

Item CC1(C)C(CO)=C(c2ccc(F)cc2)C(C)(C)N1O.Cl has what recorded Mean OD (×10^−3), cancer cell viability?
1105.00 ×10^−3

Item CC1(C)CC(CO)CC(C)(C)N1O.Cl has what recorded Mean OD (×10^−3), cancer cell viability?
1168.25 ×10^−3

Item CC1(C)C=C(C(N)=O)C(C)(C)N1O has what recorded Mean OD (×10^−3), cancer cell viability?
1432.50 ×10^−3

Next:
Item CC1(C)CC(Oc2nsnc2-c2ccccc2)CC(C)(C)N1O.Cl has what recorded Mean OD (×10^−3), cancer cell viability?
23.00 ×10^−3

Item CC1(C)CC(=O)CC(C)(C)N1O has what recorded Mean OD (×10^−3), cancer cell viability?
556.50 ×10^−3

Item CC1(C)CC(Cl)CC(C)(C)N1O.Cl has what recorded Mean OD (×10^−3), cancer cell viability?
492.75 ×10^−3

Item CC1(C)COCC(C)(C)N1O.Cl [Compound 20, 3,3,5,5-1-hydroxy-tetramethylmorpholine] has what recorded Mean OD (×10^−3), cancer cell viability?
515.50 ×10^−3

Item CC1(C)CC(NC(=O)N2CCOCC2)CC(C)(C)N1O.Cl has what recorded Mean OD (×10^−3), cancer cell viability?
470.25 ×10^−3

Item CC1(C)CC(=CC(=O)N2CCN(c3ccccc3)CC2)CC(C)(C)N1O has what recorded Mean OD (×10^−3), cancer cell viability?
1153.00 ×10^−3

Item CC1(C)CC(=O)C(C)(C)N1O.Cl has what recorded Mean OD (×10^−3), cancer cell viability?
1329.75 ×10^−3

Item CC1(C)CC(C#N)CC(C)(C)N1O.Cl has what recorded Mean OD (×10^−3), cancer cell viability?
539.25 ×10^−3

Item CC1(C)CC(C(N)=O)C(C)(C)N1O (stereo not drawn) has what recorded Mean OD (×10^−3), cancer cell viability?
1166.50 ×10^−3

Item CC(C)c1nsnc1OCC1=CC(C)(C)N(O)C1(C)C has what recorded Mean OD (×10^−3), cancer cell viability?
1208.25 ×10^−3

Item CC1(C)C=C(CC2CNCCO2)C(C)(C)N1O.Cl.Cl (stereo not drawn) has what recorded Mean OD (×10^−3), cancer cell viability?
1110.75 ×10^−3

Item CC1C(O)C(C)C(C)(C)N(O)C1(C)C.Cl (stereo not drawn) has what recorded Mean OD (×10^−3), cancer cell viability?
367.00 ×10^−3

Item CN1CCN(c2nsnc2OC2CC(C)(C)N(O)C(C)(C)C2)CC1 has what recorded Mean OD (×10^−3), cancer cell viability?
1186.33 ×10^−3

Item CC(=O)NC1CC(C)(C)N(O)C(C)(C)C1.Cl has what recorded Mean OD (×10^−3), cancer cell viability?
496.33 ×10^−3

Item CC1(C)CC(Oc2nsnc2N2CCOCC2)C(C)(C)N1O.Cl (stereo not drawn) has what recorded Mean OD (×10^−3), cancer cell viability?
985.67 ×10^−3

Item CC1(C)CC(NC(=O)CCN2CCOCC2)CC(C)(C)N1O.Cl has what recorded Mean OD (×10^−3), cancer cell viability?
1056.33 ×10^−3

Item CC1(C)CC(O)C(C)(C)N1O (stereo not drawn) has what recorded Mean OD (×10^−3), cancer cell viability?
540.25 ×10^−3

Item Cc1cc(O)c(O)cc1C(=O)NC1CC(C)(C)N(O)C(C)(C)C1.Cl has what recorded Mean OD (×10^−3), cancer cell viability?
1038.33 ×10^−3

Item CC1(C)CC(O)C(Br)C(C)(C)N1O (stereo not drawn) has what recorded Mean OD (×10^−3), cancer cell viability?
509.00 ×10^−3

Item CC1(C)C=C(CO)CC(C)(C)N1O.Cl has what recorded Mean OD (×10^−3), cancer cell viability?
1137.50 ×10^−3

Item CC1(C)C=CCC(C)(C)N1O.Cl has what recorded Mean OD (×10^−3), cancer cell viability?
1128.00 ×10^−3

Item CC1(C)C=C(CO)C(C)(C)N1O has what recorded Mean OD (×10^−3), cancer cell viability?
392.50 ×10^−3
